Biological target: T1, GIP Receptor (Homo sapiens, UniProt P48546)
T1 construct: host or cells: HEK293T
T1 sequence (P48546 22-466): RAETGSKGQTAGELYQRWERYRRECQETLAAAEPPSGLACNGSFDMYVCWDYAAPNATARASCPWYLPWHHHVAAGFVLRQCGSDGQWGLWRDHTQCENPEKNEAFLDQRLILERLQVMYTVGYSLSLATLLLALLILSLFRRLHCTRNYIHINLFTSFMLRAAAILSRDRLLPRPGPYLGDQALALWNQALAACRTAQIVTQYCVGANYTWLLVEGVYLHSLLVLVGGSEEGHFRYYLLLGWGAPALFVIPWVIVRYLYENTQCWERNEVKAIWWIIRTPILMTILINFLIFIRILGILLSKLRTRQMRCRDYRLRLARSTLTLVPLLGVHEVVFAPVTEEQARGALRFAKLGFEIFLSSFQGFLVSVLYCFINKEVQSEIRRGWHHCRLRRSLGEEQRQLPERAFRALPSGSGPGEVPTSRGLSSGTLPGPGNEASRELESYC
Experiment: GIP receptor-mediated bioluminescence in HEK293T cells with chimeric promiscuous G protein (FIG. 5, Table II)
Format: cell-based
Settings: HEK293T cells, GIP Receptor + promiscuous G protein; luminescence vs GIP concentration
Listed here are molecules together with their documented EC50.

Examples with answers:
• Mt-clytin K168E: Mitochondrial K168E modified Clytin, SEQ ID NO:12 (protein) MSVLTPLLLRGLTGSARRLPVPRAKIHSLPPEGKLRPNFDNPKWVNRHKFMFNFLDINGDGKITLDEIVSKASDDICAKLGATPEQTKRHQDAVEAFFKKIGMDYGKEVEFPAFVDGWKELANYDLKLWSQNKKSLIRDWGEAVFDIFDKDGSGSISLDEWKAYGRISGICSSDEDAEKTFKHCDLDNSGELDVDEMTRQHLGFWYTLDPNADGLYGNFVP = 21.6 nM
• Cyto-obelin: Wild-type Obelin (wt-Obelin) amino acid sequence, SEQ ID NO:4; cytosolic (protein, listed as Obelia longissima) MSSKYAVKLKTDFDNPRWIKRHKHMFDFLDINGNGKITLDEIVSKASDDICAKLEATPEQTKRHQVCVEAFFRGCGMEYGKEIAFPQFLDGWKQLATSELKKWARNEPTLIREWGDAVFDIFDKDGSGTITLDEWKAYGKISGISPSQEDCEATFRHCDLDNSGDLDVDEMTRQHLGFWYTLDPEADGLYGNGVP = 9.86 nM
• Cyto-clytin K168D: K168D modified Clytin amino acid sequence, SEQ ID NO:9; cytosolic (protein) MADTASKYAVKLRPNFDNPKWVNRHKFMFNFLDINGDGKITLDEIVSKASDDICAKLGATPEQTKRHQDAVEAFFKKIGMDYGKEVEFPAFVDGWKELANYDLKLWSQNKKSLIRDWGEAVFDIFDKDGSGSISLDEWKAYGRISGICSSDEDAEKTFKHCDLDNSGDLDVDEMTRQHLGFWYTLDPNADGLYGNFVP = 4.01 nM
• Mt-clytin K168Q: Mitochondrial K168Q modified Clytin, SEQ ID NO:20 (protein) MSVLTPLLLRGLTGSARRLPVPRAKIHSLPPEGKLRPNFDNPKWVNRHKFMFNFLDINGDGKITLDEIVSKASDDICAKLGATPEQTKRHQDAVEAFFKKIGMDYGKEVEFPAFVDGWKELANYDLKLWSQNKKSLIRDWGEAVFDIFDKDGSGSISLDEWKAYGRISGICSSDEDAEKTFKHCDLDNSGQLDVDEMTRQHLGFWYTLDPNADGLYGNFVP = 17.4 nM

Asked: Which EC50 reading was recorded for the molecule Mt-clytin K168R: Mitochondrial K168R modified Clytin, SEQ ID NO:30 (protein) MSVLTPLLLRGLTGSARRLPVPRAKIHSLPPEGKLRPNFDNPKWVNRHKFMFNFLDINGDGKITLDEIVSKASDDICAKLGATPEQTKRHQDAVEAFFKKIGMDYGKEVEFPAFVDGWKELANYDLKLWSQNKKSLIRDWGEAVFDIFDKDGSGSISLDEWKAYGRISGICSSDEDAEKTFKHCDLDNSGRLDVDEMTRQHLGFWYTLDPNADGLYGNFVP ?
Given back: 29.1 nM
